The values you see were collected from patent US5670520A.

assay: MTT cell viability of MRC5 cells; assay type: cell-based; settings: human, mrc5 cells, vesnarinone 31 μg/ml alone; read-out: MTT Cell Viability (% of control)
quantityKind: viability
Include the unit right after the number.

Looking for the measured viability of COc1ccc(C(=O)N2CCN(c3ccc4c(c3)CCC(=O)N4)CC2)cc1OC , can you help?
90%

----------
test: MTT cell viability of MRC5 cells; type: cell-based; settings: human, mrc5 cells, DHPG 5.000 μM alone; read-out: MTT Cell Viability (% of control)
quantityKind: viability at 5 µM (%)
Answers are plain numbers, in %.

Looking for the measured viability at 5 µM of Nc1nc2c(ncn2COC(CO)CO)c(=O)[nH]1 [DHPG, reference compound] , can you help?
100
